# measurement-target: Prothrombin (Homo sapiens)
Residues, ends and D or L forms follow the SMILES beside them. *: point of attachment. Agmatine = N=C(N)NCCCCN*; PhAc = O=C(Cc1ccccc1)*
experimental-readout: Ki (µM)
Write the value in µM as a bare number.

Item: CC(C)[C@H](NC(=O)[C@H](CCCNC(=N)N)NC(=O)Cc1ccccc1)C(=O)N[C@@H](CCCNC(=N)N)C(=O)NCCCCNC(=N)N (PhAc-Arg-Val-Arg-Agmatine) | Ki: 102

More entries:
Ki in this record for CC(C)[C@H](NC(=O)[C@H](CCCNC(=N)N)NC(=O)Cc1ccccc1)C(=O)N[C@@H](CCCNC(=N)N)C(=O)NCc1ccc(C(=N)N)cc1 : 23

Summary for this compound, CC(C)[C@H](NC(=O)[C@H](CCCNC(=N)N)NC(=O)Cc1ccccc1)C(=O)N[C@@H](CCCNC(=N)N)C(=O)NCC1CCN(C(=N)N)CC1 : Ki is 50

* * *

Each entry below carries its measured pKi, system: Plasminogen (Homo sapiens, UniProt P00747).
Sequence (P00747 97-580 limits assumed): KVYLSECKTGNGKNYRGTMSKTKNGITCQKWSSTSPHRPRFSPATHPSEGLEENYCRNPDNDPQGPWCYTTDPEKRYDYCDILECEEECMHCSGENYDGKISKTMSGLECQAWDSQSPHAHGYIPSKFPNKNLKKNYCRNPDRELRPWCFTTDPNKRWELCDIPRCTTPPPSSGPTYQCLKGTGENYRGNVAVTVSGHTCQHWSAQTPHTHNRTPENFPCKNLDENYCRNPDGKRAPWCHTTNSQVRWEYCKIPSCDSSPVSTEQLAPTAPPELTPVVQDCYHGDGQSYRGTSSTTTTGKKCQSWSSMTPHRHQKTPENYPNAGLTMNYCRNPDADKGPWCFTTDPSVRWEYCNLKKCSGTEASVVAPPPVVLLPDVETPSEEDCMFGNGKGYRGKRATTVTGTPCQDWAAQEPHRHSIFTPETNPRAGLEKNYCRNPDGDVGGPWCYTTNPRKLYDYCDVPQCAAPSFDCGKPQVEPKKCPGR
Sequence (P00747 581-810 limits assumed): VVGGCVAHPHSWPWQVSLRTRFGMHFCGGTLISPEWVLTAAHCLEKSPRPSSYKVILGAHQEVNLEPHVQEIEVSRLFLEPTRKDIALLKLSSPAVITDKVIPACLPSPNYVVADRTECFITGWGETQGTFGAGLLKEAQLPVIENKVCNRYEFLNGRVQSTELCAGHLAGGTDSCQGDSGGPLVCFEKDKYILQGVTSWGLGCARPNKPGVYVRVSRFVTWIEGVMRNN
Residues, ends and D or L forms follow the SMILES beside them. *: point of attachment. Agmatine = N=C(N)NCCCCN*; PhAc = O=C(Cc1ccccc1)*
API: returns pKi as number; meaning -log10 of concentration in mol/L.

Known value: Plasminogen (Homo sapiens, UniProt P00747) pKi of the molecule CC(C)[C@H](NC(=O)[C@H](CCCNC(=N)N)NC(=O)Cc1ccccc1)C(=O)N[C@@H](CCCNC(=N)N)C(=O)NCCCCNC(=N)N (PhAc-Arg-Val-Arg-Agmatine) equals 4.01

Now let's try a different one.
For CC(C)[C@H](NC(=O)[C@H](CCCNC(=N)N)NC(=O)Cc1ccccc1)C(=O)N[C@@H](CCCNC(=N)N)C(=O)NCc1ccc(C(=N)N)cc1 on Plasminogen (Homo sapiens, UniProt P00747), measured pKi was 5.22

* * *

Recorded Ki values (Proprotein convertase subtilisin/kexin type 5 (Homo sapiens, UniProt Q92824)) are given below.
Residues, ends and D or L forms follow the SMILES beside them. *: point of attachment. Agmatine = N=C(N)NCCCCN*; PhAc = O=C(Cc1ccccc1)*
Hi! Could you send only the number? It should be in nM, unit omitted.

Recorded Ki, per entry:
Sure, the documented Ki for CCCCCCCCCC(=O)N[C@@H](CCCN=C(N)N)C(=O)N[C@H](C(=O)N[C@@H](CCCN=C(N)N)C(=O)NCc1ccc(C(=N)N)cc1)C(C)C is 6.3

The molecule listed as CC(C)[C@H](NC(=O)[C@H](CCCNC(=N)N)NC(=O)Cc1ccccc1)C(=O)N[C@@H](CCCNC(=N)N)C(=O)NCC1CCN(C(=N)N)CC1 shows Ki equal to 173

Value of measured Ki for the entry CC(C)[C@H](NC(=O)[C@H](CCCNC(=N)N)NC(=O)Cc1ccccc1)C(=O)N[C@@H](CCCNC(=N)N)C(=O)NCCCCNC(=N)N (PhAc-Arg-Val-Arg-Agmatine) : 85

CC(=O)N[C@@H](CCCNC(=N)N)C(=O)N[C@H](C(=O)N[C@@H](CCCNC(=N)N)C(=O)NCc1ccc(C(=N)N)cc1)C(C)C yielded Ki of 3.6

---
Memo: CC(C)[C@H](NC(=O)[C@H](CCCNC(=N)N)NC(=O)Cc1ccccc1)C(=O)N[C@@H](CCCNC(=N)N)C(=O)NCc1ccc(C(=N)N)cc1 , reported Ki: 1.6

// provenance: ChEMBL document CHEMBL1156804
